- target: GPR119 (Homo sapiens)
- Construct: host or cells: CHO-K1 (GPR119 CRE-bla, doxycycline-induced)
- protocol summary: cAMP Accumulation Assay (GPR119 CRE-bla CHO-K1 cells, LiveBLAzer-FRET B/G)
- Assay type: cell-based
- experimental setup: maximum activity, response ratio versus non-treated control group
measure: Emax (Fold)
The reply should be a number in Fold, with the unit left off.

For C[C@H]1CN(C(=O)OC(C)(C)C)CCN1c1ncc(-c2ccc(-n3cnn(C)c3=O)c(F)c2)cn1 [Example 1] , what is its reported Emax (Fold)? 2.9

Emax (Fold) for CC(C)c1nc(C2CCN(c3ncc(-c4ccc(-n5cnn([C@@H]6CCOC6)c5=O)cc4)cc3C#N)CC2)no1 [Example 70] ? 3.5

Query: Emax (Fold); subject: CCc1cnc(N2CCN(c3ncc(-c4ccc(-n5cnn(C)c5=O)c(F)c4)cn3)[C@@H](C)C2)nc1 [Example 7] 2.5

Fill blank: measured Emax (Fold) of the molecule CC(C)c1noc(C2CCN(c3ncc(-c4ccc(-n5cnn(CN6CCCC6)c5=O)c(F)c4)cc3C#N)CC2)n1 [Example 64] is ____. 3.8

---

- target: GPR119 (Homo sapiens, UniProt Q8TDV5)
- Construct: host or cells: CHO-K1 (GPR119 CRE-bla, doxycycline-induced)
- protocol summary: cAMP Accumulation Assay (GPR119 CRE-bla CHO-K1 cells, LiveBLAzer-FRET B/G)
- Assay type: cell-based
- experimental setup: (Emax of the test compound/Emax of MBX-2982)x100, 5 hours incubation
For each record, write down the corresponding Emax (% RR).
Numeric only. Scale: % RR

# lookup: Emax (% RR) of `CCc1cnc(N2CCN(c3ncc(-c4ccc(-n5cnn(C[C@H](O)CO)c5=O)c(F)c4)cc3C#N)CC2)nc1` 118.1

Quick check: Emax (% RR) of `CCc1cnc(N2CCN(c3ncc(-c4ccc(-n5cnn(CC(=O)OC)c5=O)c(F)c4)cc3C#N)[C@@H](C)C2)nc1` ? 102.0

What measured Emax (% RR) goes with `COCCn1ncn(-c2ccc(-c3cnc(N4CCC(c5noc(C(C)C)n5)CC4)c(C#N)c3)cc2)c1=O` ? 126.7

Which Emax (% RR) is reported for this compound? `CCc1cnc(N2CCN(c3ncc(-c4ccc(-n5cnn([C@@H]6CCOC6)c5=O)c(F)c4)cc3C#N)CC2)nc1` 125.7

---

- target: GPR119 (Homo sapiens)
- Construct: host or cells: CHO-K1 (GPR119 CRE-bla, doxycycline-induced)
- Sequence (Q8TDV5 1-335): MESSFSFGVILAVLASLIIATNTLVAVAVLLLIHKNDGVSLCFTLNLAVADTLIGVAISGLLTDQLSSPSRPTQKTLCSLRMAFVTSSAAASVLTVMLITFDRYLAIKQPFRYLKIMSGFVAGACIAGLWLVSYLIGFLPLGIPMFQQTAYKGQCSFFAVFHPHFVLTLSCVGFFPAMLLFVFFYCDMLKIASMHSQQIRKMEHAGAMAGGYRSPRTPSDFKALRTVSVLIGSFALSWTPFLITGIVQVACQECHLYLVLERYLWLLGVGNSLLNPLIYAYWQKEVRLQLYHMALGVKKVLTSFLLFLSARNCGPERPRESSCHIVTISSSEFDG
- protocol summary: cAMP Accumulation Assay (GPR119 CRE-bla CHO-K1 cells, LiveBLAzer-FRET B/G)
- Type: cell-based
- experimental setup: maximum activity, response ratio versus non-treated control group
Criterion: Emax (Fold) strictly less than 3 Fold. Met: 1. Not met: 0.

For C=C(C)OC(=O)N(C)C1CCN(c2ncc(-c3ccc(-n4cnn(C(C)C)c4=O)c(F)c3)cc2C#N)CC1 [Example 59] , is the recorded Emax (Fold) below the cut-off of 3 Fold? 1

Is Emax (Fold) strictly under 3 Fold for the entry CC(C)c1nc(N2CCN(c3ncc(-c4ccc(-n5cnn(C(C)C)c5=O)c(F)c4)cc3C#N)CC2)no1 [Example 46] ? 0

Bench note: check whether CCc1cnc(N2CCN(c3ncc(-c4ccc(-n5cnn(CC(C)(C)O)c5=O)c(F)c4)cc3C#N)[C@@H](C)C2)nc1 [Example 11] shows Emax (Fold) below 3 Fold 1

In plain terms, does CC(C)n1ncn(-c2ccc(-c3cnc(N4CCC(N(C)C(=O)OC(C)(C)C)CC4)c(C#N)c3)cc2F)c1=O [Example 58] come in under 3 Fold for Emax (Fold)? 1

Report whether reported Emax (Fold) is lower than 3 Fold (strictly) for CCCn1ncn(-c2ccc(-c3cnc(N4CCN(C(=O)OC(C)(C)C)C[C@@H]4C)nc3)cc2F)c1=O [Example 2] 0

Quick check: Emax (Fold) of CCc1cnc(N2CCN(c3ncc(-c4ccc(-n5cnn([C@@H]6CCOC6)c5=O)cc4)cc3C#N)CC2)nc1 [Example 41] under 3 Fold? 0

Does CC(C)n1ncn(-c2ccc(-c3cnc(N4CCN(C(=O)OC(C)(C)C)C[C@@H]4C)nc3)cc2F)c1=O [Example 3] have Emax (Fold) strictly under 3 Fold? 0

Please state whether Emax (Fold) is below 3 Fold for CCc1cnc(N2CCN(c3ncc(-c4ccc(-n5cnn(COC)c5=O)c(F)c4)cc3C#N)[C@@H](C)C2)nc1 [Example 22] 0

For this compound, is Emax (Fold) lower than 3 Fold? CCc1cnc(N2CCN(c3ncc(-c4ccc(-n5cnn(CCNS(C)(=O)=O)c5=O)c(F)c4)cc3C#N)[C@@H](C)C2)nc1 [Example 23] 0

For this compound, is Emax (Fold) lower than 3 Fold? CC(C)c1nc(N2CCN(c3ncc(-c4ccc(-n5cnn(C)c5=O)c(F)c4)cc3C#N)CC2)no1 [Example 45] 0

Say whether its Emax (Fold) is strictly beneath 3 Fold. Entry: CCCn1ncn(-c2ccc(-c3cnc(N4CCC(c5noc(C(C)C)n5)CC4)c(C#N)c3)cc2F)c1=O [Example 66] 0

Is Emax (Fold) strictly under 3 Fold for the entry COCCn1ncn(-c2ccc(-c3cnc(N4CCC(c5noc(C(C)C)n5)CC4)c(C#N)c3)cc2)c1=O [Example 69] ? 0

A record lists CCc1cnc(N2CCN(c3ncc(-c4ccc(-n5cnn(CC(=O)N6CCCC6)c5=O)c(F)c4)cc3C#N)CC2)nc1 [Example 37] . Is its Emax (Fold) below 3 Fold? 0

Field: below-cutoff. Rule: recorded Emax (Fold) strictly less than 3 Fold. Subject: CCc1cnc(N2CCN(c3ncc(-c4ccc(-n5cnn(C(C)C)c5=O)c(F)c4)cc3C#N)CC2)nc1.Cl [Example 43] 0

Lab note: Emax (Fold) threshold 3 Fold. Does this compound come in strictly under it? CCc1cnc(N2CCN(c3ncc(-c4ccc(-n5cnn(C)c5=O)cc4)cc3C#N)CC2)nc1 [Example 39] 0

src = patent US9663495B2
